molecular target: Hsp90 in C. albicans (SC5314) lysate (Candida albicans, UniProt P46598); construct: endogenous in cells; host or cells: C. albicans SC5314 whole-cell lysate; assay: biochemical; assay type: binding; settings: SC5314 lysate, 1000 nM
Sequence (P46598 whole entry): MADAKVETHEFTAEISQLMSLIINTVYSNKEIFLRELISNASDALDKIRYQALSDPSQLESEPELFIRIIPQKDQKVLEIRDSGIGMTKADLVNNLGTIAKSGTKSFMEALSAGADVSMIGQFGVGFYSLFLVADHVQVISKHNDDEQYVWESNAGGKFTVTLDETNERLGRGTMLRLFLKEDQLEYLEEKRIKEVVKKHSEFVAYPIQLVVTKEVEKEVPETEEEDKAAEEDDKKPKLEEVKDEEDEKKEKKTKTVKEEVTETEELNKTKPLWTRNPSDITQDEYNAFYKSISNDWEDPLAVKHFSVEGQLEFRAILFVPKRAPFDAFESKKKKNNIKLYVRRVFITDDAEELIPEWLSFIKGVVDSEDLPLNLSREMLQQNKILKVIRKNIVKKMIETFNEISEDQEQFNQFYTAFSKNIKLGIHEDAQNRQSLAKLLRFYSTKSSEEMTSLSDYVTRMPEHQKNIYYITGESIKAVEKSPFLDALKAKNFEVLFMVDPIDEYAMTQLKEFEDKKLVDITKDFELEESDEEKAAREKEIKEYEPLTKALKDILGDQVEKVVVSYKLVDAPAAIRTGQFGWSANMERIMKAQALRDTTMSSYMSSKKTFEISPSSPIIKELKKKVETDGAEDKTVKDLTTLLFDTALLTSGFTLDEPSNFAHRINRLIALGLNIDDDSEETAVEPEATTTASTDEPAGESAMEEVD
Documented FP signal (raw) across a set of compounds
Could you keep your reply to the number by itself?

Some solved cases for reference:
COMPOUND	SUBJECT_OF_TEST	READOUT_NAME	OBSERVED_RESULT
C[C@@H]1C[C@@H]2O[C@@H]2/C=C\C=C\C(=NOCc2ccccc2Cl)Cc2c(Cl)c(O)cc(O)c2C(=O)O1	Hsp90 in C. albicans (SC5314) lysate (Candida albicans, UniProt P46598)	FP signal (raw)	75
CC1(C)CC(=O)c2c(C(F)(F)F)nn(-c3ccc(C(N)=O)c(N[C@H]4CC[C@H](OC(=O)CN)CC4)c3)c2C1	Hsp90 in C. albicans (SC5314) lysate (Candida albicans, UniProt P46598)	FP signal (raw)	33
CC1CC2OC2C=CC=CC(=NOCc2cccc(F)c2)Cc2c(Cl)c(O)cc(O)c2C(=O)O1 (mixture of isomers)	Hsp90 in C. albicans (SC5314) lysate (Candida albicans, UniProt P46598)	FP signal (raw)	56
COc1ccc(CON=C2C=CC=CC3OC3CC(C)OC(=O)c3c(O)cc(O)c(Cl)c3C2)cc1 (mixture of isomers)	Hsp90 in C. albicans (SC5314) lysate (Candida albicans, UniProt P46598)	FP signal (raw)	116

Lookup: Please state recorded FP signal (raw) (tested on Hsp90 in C. albicans (SC5314) lysate (Candida albicans, UniProt P46598)) of Cc1ccc(CON=C2C=CC=CC3OC3CC(C)OC(=O)c3c(O)cc(O)c(Cl)c3C2)cc1 (mixture of isomers)
Found: 108

Lookup: Look up FP signal (raw) with Hsp90 in C. albicans (SC5314) lysate (Candida albicans, UniProt P46598) for this compound: COc1ccccc1CON=C1C=CC=CC2OC2CC(C)OC(=O)c2c(O)cc(O)c(Cl)c2C1 (mixture of isomers)
Found: 57

Just for reference, paper PMC6345968 is where these values come from.
